Let's look at some binders and their measured potency in TPO-dependent cell-proliferation assay, against the monomer.
Biological target: T1, human c-Mpl receptor (TPO receptor), full-length, transfected into IL-3 dependent murine 32D cells (human, UniProt P40238 26-635)
T1 sequence (looked up): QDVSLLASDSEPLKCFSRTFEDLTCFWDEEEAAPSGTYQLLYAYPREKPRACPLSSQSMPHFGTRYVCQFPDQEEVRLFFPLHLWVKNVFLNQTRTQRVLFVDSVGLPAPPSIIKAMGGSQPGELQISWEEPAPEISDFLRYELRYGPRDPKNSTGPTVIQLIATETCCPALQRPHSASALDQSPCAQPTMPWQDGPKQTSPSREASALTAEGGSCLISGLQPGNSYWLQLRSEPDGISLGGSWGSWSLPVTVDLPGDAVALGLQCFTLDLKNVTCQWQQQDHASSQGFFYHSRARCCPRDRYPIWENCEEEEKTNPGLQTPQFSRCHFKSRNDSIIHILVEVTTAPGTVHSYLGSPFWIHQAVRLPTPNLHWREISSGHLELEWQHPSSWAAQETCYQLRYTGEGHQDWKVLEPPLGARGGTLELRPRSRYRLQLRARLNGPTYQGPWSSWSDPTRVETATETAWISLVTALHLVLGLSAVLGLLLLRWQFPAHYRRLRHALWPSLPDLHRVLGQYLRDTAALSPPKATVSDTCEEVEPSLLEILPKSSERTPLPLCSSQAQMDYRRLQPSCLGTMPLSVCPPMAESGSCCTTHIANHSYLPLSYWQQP
Assay: cell-based or functional assay

Below: 2 binders and their reported potency in TPO-dependent cell-proliferation assay, against the monomer.
> print(dat)
                                     binder  value.observed
1  IEGPTLRQWLAARAGGGGIEGPTLRQWLAARA [TMP tandem dimer with linker of 4 glycine residues]     > 1000 fold
2  IEGPTLRQWLAARAGIEGPTLRQWLAARA [TMP tandem dimer with linker of 1 glycine residue]     > 1000 fold

Suppose we examine the binder IEGPTLRQWLAARAGGGGGGIEGPTLRQWLAARA [TMP tandem dimer with linker of 6 glycine residues] ; what potency in TPO-dependent cell-proliferation assay, against the monomer value has been reported?
> 1000 fold
